assayed-target: HIV-1 TR0.11 Env (HIV-1)
run-description: cell-based or functional assay
assay-readout: IC50, TZM-bl pseudovirus neutralization (µg/mL)
Numbers only, in µg/mL.

Record request: IC50, TZM-bl pseudovirus neutralization value, item 1503_H05 (PG16) (TCN-119) (antibody, V domains shown) VH: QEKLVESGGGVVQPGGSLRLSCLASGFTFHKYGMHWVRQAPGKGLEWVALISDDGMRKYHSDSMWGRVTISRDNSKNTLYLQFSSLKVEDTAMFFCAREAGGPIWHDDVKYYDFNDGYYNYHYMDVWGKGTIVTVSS VL: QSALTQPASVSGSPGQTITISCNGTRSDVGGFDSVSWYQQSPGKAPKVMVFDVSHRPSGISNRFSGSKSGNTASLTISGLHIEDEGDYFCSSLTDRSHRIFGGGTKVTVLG 4.3
